Values were extracted from PubChem BioAssay AID1220.

# key: entry, value: inhibition
Experimental target: Mannose-6-phosphate isomerase (Homo sapiens)
Assay: MPI inhibition at elevated mannose 6-phosphate – biochemical, fluorescence intensity, high mannose 6-phosphate, primary screen (AID 1220)
Condition summary: recombinant PMI enzyme, coupled fluorescence intensity; at 20 µM; active compounds read high
In all, about 190,000 compounds went through this assay and about 1,300 (0.68%) were called active. For the sample, actives were picked, then their nearest neighbours and some compounds at random.
Metric: inhibition (%)

Compound	Metric	Measurement
CC1CN(c2ccc([N+](=O)[O-])c3cccnc23)CC(C)N1 (stereo not drawn)	inhibition	63.1
COc1cc(NC(=O)CN2C3CCC2CC(O)(c2cccnc2)C3)cc(OC)c1 (stereo not drawn)	inhibition	5.3
O=C1CN=C(c2ccc(F)cc2)c2oc3ccccc3c2N1	inhibition	-7.1
CCCCn1c(O)c(C(CC)=Nc2ccc(OC)cc2OC)c(=O)[nH]c1=O	inhibition	17.6
CN1CCN(c2ccc(S(=O)(=O)C(F)(F)F)cc2[N+](=O)[O-])CC1	inhibition	-6.1
CC(C)C[C@H]1C(=O)N2CCCC2[C@]2(O)O[C@](NC(=O)[C@@H]3C=C4c5cccc6[nH]cc(c56)CC4N(C)C3)(C(C)C)C(=O)N12 (stereo partly drawn)	inhibition	48.1
CC1CN(c2cc([N+](=O)[O-])ccc2Cl)CC(C)N1 (stereo not drawn)	inhibition	-1.6
O=[N+]([O-])c1ccc(N2CCNCC2)c2ncccc12	inhibition	29
COc1cccc(CN2CCCCC2c2cccnc2)c1 (stereo not drawn)	inhibition	-2.6
O[C@H]1C2CCC1C(N1CCCCC1)CC2 (stereo partly drawn)	inhibition	5.7
COc1ccc(CCn2c(O)c(C=NCc3ccc4c(c3)OCO4)c(=O)[nH]c2=O)cc1OC	inhibition	8.6
O=[N+]([O-])c1ccc(N2CCCC2)c2ccncc12	inhibition	47.4
CN1CCN(c2ccc(S(C)(=O)=O)cc2[N+](=O)[O-])CC1	inhibition	-13.1
Cc1ccc(O)c(CN2CCN(c3ccccc3)CC2)c1	inhibition	4.3
CCC(=O)N1CC(=O)Nc2ccc(Br)cc2C1c1ccccc1 (stereo not drawn)	inhibition	2.3
CC(C)CCN1CCN(Cc2c(F)cccc2Cl)CC1CCO (stereo not drawn)	inhibition	-1.1
CCCCCCC(=O)c1c(O)n(-c2ccccc2OC)c(=O)[nH]c1=O	inhibition	-8.9
O=C(NC[P+](=O)O)OCc1ccccc1	inhibition	-7
CN1C[C@H](CNC(=O)OCc2ccccc2)C[C@@H]2c3cccc4c3c(cn4C)C[C@H]21	inhibition	58.2
CN1CCN(c2ccc([N+](=O)[O-])c3cccnc23)CC1	inhibition	63.5
COc1cccc(C2CC3C(=O)C=CC2N3Cc2ccccc2)c1 (stereo not drawn)	inhibition	61.2
CC(=O)NC1CC2CCCC(C1)N2 (stereo not drawn)	inhibition	-5.2
CCN(CC)P(=S)(c1c(C)nc2ccccn12)c1c(C)nc2ccccn12	inhibition	-6.3
C=CCn1c(O)c(C(C)=Nc2cc(OC)ccc2OC)c(=O)[nH]c1=O	inhibition	13
O=c1[nH]c(=O)n(Cc2ccc(F)cc2)c(O)c1C=NCC1CCCO1 (stereo not drawn)	inhibition	-20.4
COc1ccccc1NC1=NCCS1	inhibition	-1
O=C(CSc1ccccc1)N1CCC2(CC1)OCCO2	inhibition	14.1
COc1ccc(N2C(=O)NC(=O)/C(=C/c3ccc4c(c3)Cc3ccccc3-4)C2=O)cc1	inhibition	-32.8
COC(=O)c1c(N)n(Cc2ccc(OC)cc2)c2nc3ccccc3nc12	inhibition	0.2
COc1ccc(N=Cc2c(O)n(Cc3cccs3)c(=O)[nH]c2=O)cc1	inhibition	0.9
O=[N+]([O-])c1ccc(N2CCCC2)c2ncccc12	inhibition	22.1
O=[N+]([O-])c1ccc(N2CCNCC2)cc1N1CCCCC1	inhibition	9.9
Cc1cc2c(C(C)C)c(O)c(O)c(C=O)c2c(O)c1-c1c(C)cc2c(C(C)C)c(O)c(O)c(C=O)c2c1O	inhibition	51.4
CC(C)[C@H]1C(=O)N2CCC[C@H]2[C@]2(O)O[C@](NC(=O)[C@@H]3C=C4c5cccc6[nH]cc(c56)C[C@H]4N(C)C3)(C(C)C)C(=O)N12	inhibition	0.6
COc1cccc(C(=O)C2CCCN(Cc3ccon3)C2)c1 (stereo not drawn)	inhibition	8.8
COc1ccc(C(=O)C2CCCN(C3CSCCSC3)C2)cc1OC (stereo not drawn)	inhibition	8.3
CCOC(=O)c1c(-n2c(C)cc(/C=C3\C(=O)NC(=O)N(C)C3=O)c2C)sc2c1CCCC2	inhibition	12.7
O=C(c1ccc2c(c1)OCO2)C1CCCN(CC2CCCCC2)C1 (stereo not drawn)	inhibition	12.9
